Assay Target: Neuropeptide Y receptor type 5 (Homo sapiens)
Sequence (Q15761 whole entry): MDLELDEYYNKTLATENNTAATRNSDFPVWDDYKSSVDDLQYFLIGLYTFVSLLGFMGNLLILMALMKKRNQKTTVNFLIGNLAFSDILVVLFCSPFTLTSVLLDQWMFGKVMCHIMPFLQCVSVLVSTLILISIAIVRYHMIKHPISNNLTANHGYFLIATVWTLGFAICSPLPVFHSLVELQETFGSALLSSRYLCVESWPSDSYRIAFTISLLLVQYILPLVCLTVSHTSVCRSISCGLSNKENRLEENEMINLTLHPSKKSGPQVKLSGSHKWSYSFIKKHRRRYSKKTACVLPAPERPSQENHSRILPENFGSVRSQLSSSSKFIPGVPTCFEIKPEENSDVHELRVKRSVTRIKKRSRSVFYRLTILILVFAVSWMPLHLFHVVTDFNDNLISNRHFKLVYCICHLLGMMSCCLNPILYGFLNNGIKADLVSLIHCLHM
Protocol: Displacement of [125I]PYY from human NPY5 receptor in HEK293 cells
Type: cell-based
Give measured Ki for each item. Keep answers brief.

Example entries begin here.
>>> print(df.to_string())
               substance                              assay_target  result
0   Ac-LRHYLNLLTRQRY-NH2  Neuropeptide Y receptor type 5 (Homo sapiens)  > 1 µM
1  Ac-LRHYLNLLTRQRYC-NH2  Neuropeptide Y receptor type 5 (Homo sapiens)  > 1 µM

**Query** Any idea what its Ki is? The substance is `Ac-CLRHYLNLLTRQRY-NH2`
**Result** > 1 µM
